# testedOn: glucocorticoid receptor (Homo sapiens, UniProt P04150)
# Sequence (P04150 whole entry): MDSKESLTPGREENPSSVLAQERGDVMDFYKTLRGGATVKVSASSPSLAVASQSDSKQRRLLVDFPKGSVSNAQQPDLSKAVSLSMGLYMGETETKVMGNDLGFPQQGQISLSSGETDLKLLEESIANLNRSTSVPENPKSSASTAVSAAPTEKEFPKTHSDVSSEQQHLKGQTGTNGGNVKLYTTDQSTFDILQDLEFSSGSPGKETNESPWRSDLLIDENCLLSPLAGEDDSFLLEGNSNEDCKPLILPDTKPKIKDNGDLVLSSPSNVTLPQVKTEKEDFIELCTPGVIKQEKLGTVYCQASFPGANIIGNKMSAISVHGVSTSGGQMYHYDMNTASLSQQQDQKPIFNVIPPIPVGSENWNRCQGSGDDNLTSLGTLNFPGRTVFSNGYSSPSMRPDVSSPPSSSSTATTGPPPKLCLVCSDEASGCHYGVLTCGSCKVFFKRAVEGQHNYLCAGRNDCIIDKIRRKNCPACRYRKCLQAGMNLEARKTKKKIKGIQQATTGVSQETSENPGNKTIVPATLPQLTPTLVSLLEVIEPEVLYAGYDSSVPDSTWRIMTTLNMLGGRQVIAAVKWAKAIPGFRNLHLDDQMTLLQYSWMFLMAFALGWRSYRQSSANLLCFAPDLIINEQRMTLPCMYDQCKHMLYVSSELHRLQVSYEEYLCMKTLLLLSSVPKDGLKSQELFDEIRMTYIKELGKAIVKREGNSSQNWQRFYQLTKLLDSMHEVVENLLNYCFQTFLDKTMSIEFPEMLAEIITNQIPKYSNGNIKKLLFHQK
# testDetails: Hep G2 TAT assay: induction of TAT by dexamethasone in HepG2 cells
Task for the reader: assign each of the following molecules its reported pKi.
Scale for pKi: -log10 of concentration given in mol/L; no unit attached.

Which measured pKi value corresponds to O=c1[nH]c(C2CC=C(c3ccc(OC4CC4)cc3F)CC2)c(Cc2ccccc2)c(=O)[nH]1 (stereo not drawn) [Example 94] ? 6.70

Query: pKi; subject: O=c1[nH]c(C2CC=C(c3ccc(S(=O)(=O)N4CCCC4)cc3F)CC2)c(Cc2ccccc2)c(=O)[nH]1 (stereo not drawn) [Example 100] 5.80

# query: pKi of entry O=c1[nH]c(C2CC=C(c3ccc(OCC4CC4)cc3Cl)CC2)c(Cc2ccccc2)c(=O)[nH]1 (stereo not drawn) [Example 85] 5.86

So what's the measured pKi for this one? O=c1[nH]c(C2CC=C(c3cccc(Cl)c3)CC2)c(Cc2ccccc2)c(=O)[nH]1 (stereo not drawn) [Example 16] 6.19

Please look up its pKi: O=c1[nH]c([C@H]2CC=C(c3ccc(Cl)cc3C(F)(F)F)CC2)c(Cc2ccccc2)c(=O)[nH]1 (single isomer, unassigned) [Example 109] 7.52

I'd like to know its pKi. The molecule in question is CS(=O)(=O)c1ccc(C2=CCC(c3[nH]c(=O)[nH]c(=O)c3Cc3cccc(C(F)(F)F)c3)CC2)c(F)c1 (stereo not drawn) [Example 116] 6.77

Please give the measured pKi for this molecule: O=c1[nH]c(C2CC=C(c3ccc(F)cc3)CC2)c(Cc2ccccc2)c(=O)[nH]1 (stereo not drawn) [Example 3] 6.34

Quick one: pKi for CS(=O)(=O)c1ccc(C2=CCC(c3[nH]c(=O)[nH]c(=O)c3Cc3ccccc3)CC2)c(F)c1 (stereo not drawn) [Example 73] ? 7.15

State the recorded pKi for this entry: CC(C)Oc1ccc(C2=CCC(c3[nH]c(=O)[nH]c(=O)c3Cc3ccccc3)CC2)c(F)c1 (stereo not drawn) [Example 68] 6.30

Which pKi is reported for this molecule? CCOc1ccc(C2=CCC(c3[nH]c(=O)[nH]c(=O)c3Cc3ccccc3)CC2)c(C(F)(F)F)c1 (stereo not drawn) [Example 53] 7.29

Entry under review: Cc1cc(C2=CCC(c3[nH]c(=O)[nH]c(=O)c3Cc3ccccc3)CC2)n(C)n1 (stereo not drawn) [Example 63] . Reported pKi? 6.20

Reported pKi for O=c1[nH]c(C2CC=C(c3ccccc3Cl)CC2)c(Cc2ccccc2)c(=O)[nH]1 (stereo not drawn) [Example 8] : what is it? 7.28

# lookup: pKi of C[C@H]1CCCN(c2ncccc2C2=CCC(c3[nH]c(=O)[nH]c(=O)c3Cc3ccccc3)CC2)C1 (stereo partly drawn) [Example 48] 6.89

Reported pKi, molecule C[C@@H]1CCCN(c2ncccc2C2=CCC(c3[nH]c(=O)[nH]c(=O)c3Cc3ccccc3)CC2)C1 (stereo partly drawn) [Example 47] : ____ 6.40

Dear colleague, I am looking for the recorded pKi of the following molecule: O=c1[nH]c(C2CC=C(c3ccc(OC(F)(F)F)c(F)c3F)CC2)c(Cc2ccccc2)c(=O)[nH]1 (stereo not drawn) [Example 92] 6.10
